Target: T1, 4H483-AA
T1 chain: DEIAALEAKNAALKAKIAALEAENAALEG
Test: two-hybrid library CCmax;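 also: natural log of median RNA to DNA barcode read ratio; higher means stronger binding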
Conditions: mean of both orientations
endpoint: interaction score

binder: DENAALEAEIAALEAKIAALEAKNAALKG [4H1064-AA]
interaction score: -0.857

binder: DEIAALEAKIAALKAENAALEAKIAALEG [4H341-AA]
interaction score: 0.738

binder: DKNAALKAENAALKAEIAALEAKIAALKG [4H3782-AA]
interaction score: -0.902

binder: DENAALEAKIAALKAEIAALEAKIAALEG [4H1349-AA]
interaction score: -1.07

binder: DEIAALEAKIAALKAKNAALKAENAALKG [4H380-AA]
interaction score: -1.15

binder: DKNAALEAKIAALKAENAALEAKIAALKG [4H3414-AA]
interaction score: 0.796

[I] DKIAALKAEIAALEAENAALEAENAALKG [4H2580-AA]
[II] DEIAALEAENAALEAEIAALEAEIAALKG [4H130-AA]
[III] DENAALKAEIAALEAENAALEAKIAALKG [4H1558-AA]
[IV] DKNAALEAEIAALEAKNAALKAEIAALEG [4H3129-AA]
# desc sort on interaction score across 4 binders Provide your answer as the labels ordered per the instruction.
III, II, I, IV

[P] DENAALEAKIAALKAEIAALKAKNAALKG [4H1360-AA]
[Q] DENAALEAKNAALEAKIAALKAKIAALKG [4H1454-AA]
Which of these two has the smaller recorded interaction score: P or Q ? Identify your selection by its label.
P
